# study.system: native PcrV on live Pseudomonas aeruginosa (strains O6-57/66, O11-PA103, O1-52/66, O16-177/81) (Pseudomonas aeruginosa)
# test.name: cell-based or functional assay
reported.property: RBC lysis assay IC50 (P. aeruginosa strain 57/66(O6)) (µg/mL)
Express the result in µg/mL but write the number alone.

binder: 3G3 (antibody, V domains shown, also called optimized anti-PcrV mAb clone 3G3) VH: EVQLLESGGGLVQPGGSLRLSCTASGFTFSDYPMSWVRQAPGKGLDWVSGISESGGSTYDADSVKGRFSTSRDNSKSTLYLDMNSLRAEDTAIYYCAKGRFSASAGHFFRAVYGMDVWGQGTAVTVSS VL: DIQLTQSPSSLSASVGDRVTITCRASQGIRSYLAWYQQKPGKAPKLLIYAASTLQSGVPSRFSGSGSGTDFTLTISSLQPEDFATYYCQQLSSYPLSFGGGTKVEIK
uom: µg/mL
recorded.number: 0.18

Which RBC lysis assay IC50 (P. aeruginosa strain 57/66(O6)) is reported for this binder? 6D10 (antibody, V domains shown, also called optimized anti-PcrV mAb clone 6D10) VH: EVQLLESGGGLVQPGGSLRLSCTASGFTFSDYPMSWVRQAPGKGLDWVSGISESGGSTNYADSVKGRFSTSRDNSKSTLYLDMNSLRAEDTAIYYCAKGRFSTDSSHFYRAVYGMDVWGQGTAVTVSS VL: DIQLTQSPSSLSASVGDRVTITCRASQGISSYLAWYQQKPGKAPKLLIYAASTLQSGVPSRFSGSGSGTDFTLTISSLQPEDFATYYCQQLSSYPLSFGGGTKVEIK
0.16

Sample 5B3 (antibody, V domains shown, also called optimized anti-PcrV mAb clone 5B3) VH: EVQLLESGGGLVQPGGSLRLSCTASGFTFSDYPMSWVRQAPGKGLDWVSGISESGGSTNDADSVKGRFSTSRDNSKSTLYLDMNSLRAEDTAIYYCAKGRFSQDSYHFFRAVYGMDVWGQGTAVTVSS VL: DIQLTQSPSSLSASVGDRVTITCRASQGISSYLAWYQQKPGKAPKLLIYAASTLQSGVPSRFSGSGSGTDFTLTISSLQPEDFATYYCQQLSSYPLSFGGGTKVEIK — what was its RBC lysis assay IC50 (P. aeruginosa strain 57/66(O6))?
0.12

Fill in the blank: the reported RBC lysis assay IC50 (P. aeruginosa strain 57/66(O6)) of 4A10 (antibody, V domains shown, also called optimized anti-PcrV mAb clone 4A10) VH: EVQLLESGGGLVQPGGSLRLSCTASGFTFSSYPMSWVRQAPGKGLDWVSGISESGGSTNYADSVKGRFSTSRDNSKSTLYLDMNSLRAEDTAIYYCAKGRFSDASEHFFRAVYGMDVWGQGTAVTVSS VL: DIQLTQSPSSLSASVGDRVTITCRASQGISSYLAWYQQKPGKTPKLLIYAASTLQSGVPSRFSGSGSGTDFTLTISSLQPEDFATYYCQQLSSYPLTFGGGTKVEIK is ____.
0.16

Item 7B2 (antibody, V domains shown, also called optimized anti-PcrV mAb clone 7B2) VH: EVQLLESGGGLVQPGGSLRLSCTASGFTFSDYPMSWVRQAPGKGLDWVSGISESGGSTNYADSVKGRFSTSRDNSKSTLYLDMNSLRAEDTAIYYCAKGRFSTDSSHFFRAVYGMDVWGQGTAVTVSS VL: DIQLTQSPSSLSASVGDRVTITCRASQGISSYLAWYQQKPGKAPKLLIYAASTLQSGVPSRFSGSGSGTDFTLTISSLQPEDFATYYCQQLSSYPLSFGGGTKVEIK has what recorded RBC lysis assay IC50 (P. aeruginosa strain 57/66(O6))?
0.05

This collection of values is drawn from patent US20220289830A1.
